Method summary: Stability test of salts of compound 1 (HPLC, XRD)
Format: physicochemical
Cond: 25° C. closed, day 30
Where a name gives a salt, the structure may show the parent alone.
Property label: XPRD

Sample CN[C@@H](C)C(=O)N[C@H]1CN(S(=O)(=O)c2cccc(S(=O)(=O)N3CC[C@H]4CC[C@@H](C(=O)NC(c5ccccc5)c5ccccc5)N4C(=O)[C@@H](NC(=O)[C@H](C)NC)C3)c2)CC[C@H]2CCC(C(=O)NC(c3ccccc3)c3ccccc3)N2C1=O (stereo partly shown) [compound 1 dihydrochloride amorphous form V] ; XPRD observed: Amorphous

Sample CN[C@@H](C)C(=O)N[C@H]1CN(S(=O)(=O)c2cccc(S(=O)(=O)N3CC[C@H]4CC[C@@H](C(=O)NC(c5ccccc5)c5ccccc5)N4C(=O)[C@@H](NC(=O)[C@H](C)NC)C3)c2)CC[C@H]2CCC(C(=O)NC(c3ccccc3)c3ccccc3)N2C1=O (stereo partly shown) [compound 1 disulfate amorphous form XXIII] ; XPRD observed: Amorphous

Sample CN[C@@H](C)C(=O)N[C@H]1CN(S(=O)(=O)c2cccc(S(=O)(=O)N3CC[C@H]4CC[C@@H](C(=O)NC(c5ccccc5)c5ccccc5)N4C(=O)[C@@H](NC(=O)[C@H](C)NC)C3)c2)CC[C@H]2CCC(C(=O)NC(c3ccccc3)c3ccccc3)N2C1=O (stereo partly shown) [Compound 1 di-p-toluenesulfonate amorphous Form XVI] ; XPRD observed: Amorphous

###

Method summary: Stability test of salts of compound 1 (HPLC, XRD)
Type: physicochemical
Cond: 25° C. closed, day 10
Where a name gives a salt, the structure may show the parent alone.
Property label: TRS (%)
Hi! Could you send only the number? It should be in %, unit omitted.

Sample CN[C@@H](C)C(=O)N[C@H]1CN(S(=O)(=O)c2cccc(S(=O)(=O)N3CC[C@H]4CC[C@@H](C(=O)NC(c5ccccc5)c5ccccc5)N4C(=O)[C@@H](NC(=O)[C@H](C)NC)C3)c2)CC[C@H]2CCC(C(=O)NC(c3ccccc3)c3ccccc3)N2C1=O (stereo partly shown) [compound 1 disulfate amorphous form XXIII] ; TRS (%) observed: 2.72

Sample CN[C@@H](C)C(=O)N[C@H]1CN(S(=O)(=O)c2cccc(S(=O)(=O)N3CC[C@H]4CC[C@@H](C(=O)NC(c5ccccc5)c5ccccc5)N4C(=O)[C@@H](NC(=O)[C@H](C)NC)C3)c2)CC[C@H]2CCC(C(=O)NC(c3ccccc3)c3ccccc3)N2C1=O (stereo partly shown) [Compound 1 dimethanesulfonate crystalline Form XVIII] ; TRS (%) observed: 2.57

Sample CN[C@@H](C)C(=O)N[C@H]1CN(S(=O)(=O)c2cccc(S(=O)(=O)N3CC[C@H]4CC[C@@H](C(=O)NC(c5ccccc5)c5ccccc5)N4C(=O)[C@@H](NC(=O)[C@H](C)NC)C3)c2)CC[C@H]2CCC(C(=O)NC(c3ccccc3)c3ccccc3)N2C1=O (stereo partly shown) [Compound 1 di-p-toluenesulfonate amorphous Form XVI] ; TRS (%) observed: 1.71

Now consider a different compound.
Sample CN[C@@H](C)C(=O)N[C@H]1CN(S(=O)(=O)c2cccc(S(=O)(=O)N3CC[C@H]4CC[C@@H](C(=O)NC(c5ccccc5)c5ccccc5)N4C(=O)[C@@H](NC(=O)[C@H](C)NC)C3)c2)CC[C@H]2CCC(C(=O)NC(c3ccccc3)c3ccccc3)N2C1=O (stereo partly shown) [compound 1 dihydrochloride amorphous form V] ; TRS (%) observed: 0.77
